Readings of growth inhibition for the listed compounds
- protocol.text: NCI Yeast Anticancer Drug Screen. Data for the CLN2oe strain (AID 163);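 also: 0% = growth of vehicle-only control cultures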
- condition.parameters: S. cerevisiae CLN2oe strain, at 3.7 µM, stronger effect = higher value
The panel holds about 79,000 compounds, 15% with a hit somewhere; the sample as a whole holds those more often. Activity calls are given as the source filed them. Rule as the data show it: active = growth inhibition above about 70%; inactive = the rest.

>>> df
                             chem_smiles         result
0  COc1cc2oc3ccccc3c(=O)c2cc1CSc1ccccc1N  3% (inactive)

Query: Sample O=c1cccccc1[O-].O=c1cccccc1[O-].O=c1cccccc1[O-].[Eu+3] — what was its growth inhibition?
Result: 11% (inactive)

Query: Sample CC(C)(Br)C(=O)/C=C/c1ccccc1 — what was its growth inhibition?
Result: -3% (inactive)

Query: Sample COC(=O)C(=O)CC(=O)c1cccc(OC)c1 — what was its growth inhibition?
Result: -3% (inactive)

Each recorded value in this set is attributed to PubChem BioAssay (NCI).
